For each of the compounds below, state its pKi.
# assay.target: human EAAT1 (Homo sapiens)
# Construct: expressed in transfected cells; host or cells: COS-7 cells, pCMV5 construct, DEAE-dextran transient transfection
# Sequence (P43003 whole entry): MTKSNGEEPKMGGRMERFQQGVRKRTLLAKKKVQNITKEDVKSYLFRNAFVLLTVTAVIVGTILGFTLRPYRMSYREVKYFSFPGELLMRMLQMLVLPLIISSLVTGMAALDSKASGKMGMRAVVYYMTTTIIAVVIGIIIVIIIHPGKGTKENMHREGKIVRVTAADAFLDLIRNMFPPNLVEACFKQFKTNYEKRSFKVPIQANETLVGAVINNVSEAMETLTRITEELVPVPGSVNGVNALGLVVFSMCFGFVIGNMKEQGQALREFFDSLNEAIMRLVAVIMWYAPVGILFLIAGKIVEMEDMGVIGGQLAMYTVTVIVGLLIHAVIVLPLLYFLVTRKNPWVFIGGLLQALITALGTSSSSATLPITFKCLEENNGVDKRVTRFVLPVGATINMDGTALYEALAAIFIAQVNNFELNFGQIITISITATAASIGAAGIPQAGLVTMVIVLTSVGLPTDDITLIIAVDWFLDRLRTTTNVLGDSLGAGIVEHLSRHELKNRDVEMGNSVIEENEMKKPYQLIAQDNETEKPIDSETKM
# procedure.summary: inhibition of [3H]-L-glutamate uptake in COS-7 cells expressing EAAT1
# Type: cell-based
# experimental.setup: uptake of 1 μM [3H]-L-glutamate; [S] << Km, Ki does not differ significantly from measured IC50; read-out: Ki, glutamate uptake inhibition constant, EAAT1
Remember the convention: pKi equals -log10 of concentration in molar.

Request: Consider the compound N[C@@H](CS(=O)(=O)O)C(=O)O [L-cysteate] . State its measured pKi.
Result: 5.00

Request: Consider the compound NC(CC(=O)O)CC(=O)O [β-glutamate] . State its measured pKi.
Result: 3.53
